Reference source: PubChem BioAssay (NCATS)

Experiment: qHTS Assay for Lipid Storage Modulators (AID 1519); note: % is set by controls: 0 for no effect and ±100 for the full control effect
Conditions: Drosophila S3 cells, BODIPY lipid droplet/cell ratio, laser cytometry; at 57.5 µM (top of the series); cells loaded with oleic acid
Description: NIH Molecular Libraries Probe Production Centers Network [MLPCN] NIH Chemical Genomics Center [NCGC] Assay Submitter (PI): Beller, Mathias; Max-Planck-Institut fur Biophysikalische Chemie […] We dispensed 4 uL of cells at 1.25 x 10^6 cells/mL into LoBase Aurora COC 1,536-well plates (black walled, clear bottom) with a bottle-valve solenoid-based dispenser (Aurora) to obtain 5,000 cells/well. […] The ratio of the total intensity in PMT channel 1 over total intensity of channel 3 was also calculated. […]
Results filed as inconclusive are left out.

Chem smiles: Cn1c(=O)c(-c2cccs2)nc2cnc(N3CCOCC3)nc21
activity change, negative = inhibition [%]: 5.09
--
Chem smiles: N#Cc1cccc(-c2cc(NCc3cccs3)ncn2)c1
activity change, negative = inhibition [%]: 3.14
--
Chem smiles: COCCNc1ncncc1-c1c(C)noc1C
activity change, negative = inhibition [%]: 3.6
--
Chem smiles: COc1ccc(-c2nc3cnc(N4CCN(C)CC4)nc3n(-c3ccc(OC)cc3)c2=O)cc1
activity change, negative = inhibition [%]: 3.89
--
Chem smiles: CC(C)NC(=O)N1CC[C@@]2(CCCN(C(=O)c3cc(C(F)(F)F)cc(C(F)(F)F)c3)C2)C1
activity change, negative = inhibition [%]: 1.68
--
Chem smiles: N#Cc1cccc(-c2nc(N3CCNCC3)c3ccccc3n2)c1
activity change, negative = inhibition [%]: 6.61
--
Chem smiles: O=C(c1ccncc1)N1CCC2(CC1)CCN(c1cccc(-c3ccccc3)c1)CC2
activity change, negative = inhibition [%]: 1.19
--
Chem smiles: COc1ccc(CNc2ncncc2-c2cccnc2)c(OC)c1
activity change, negative = inhibition [%]: 4.88
--
Chem smiles: COc1ccc(CNc2ccnc(-c3ccc4c(c3)OCO4)n2)c(OC)c1
activity change, negative = inhibition [%]: 4.67
--
Chem smiles: CC(=O)N1CCC[C@@]2(CCN(c3ncccn3)C2)C1
activity change, negative = inhibition [%]: 2.8
--
Chem smiles: CCNc1ncc2ncc(=O)n(C3CC3)c2n1
activity change, negative = inhibition [%]: 3.55

====

Test: HEK-293 Cancer Cell Toxicity qHTS against the NCATS CANVASS Library (AID 1347355); note: nearly all actives have a fitted effect of over 65% in size; note: potency is the fitted concentration of half-maximal effect
Settings: HEK-293 viability, CellTiter-Glo luminescence, 72 h; series mostly up to 46.1 µM
Records with an inconclusive call do not appear. Active and inactive are the calls of the source. Calls follow the shape of the dose curve; as a rule, active = well fitted cell-killing curve with a large enough effect; inconclusive = small, poorly fitted or top-dose-only effect; inactive = flat fitted curve, though single readings scatter. Peptide text beside a SMILES is read from it. * marks the point of attachment. Hexanoyl = CCCCCC(=O)*

Compound: O=Cc1ccc2n1C[C@]1(C[C@H](O)[C@@H](CO)O1)OC2
Potency: inactive

Compound: C[C@H](CCC(O)C(C)(O)CO)[C@@]1(O)CC[C@@]2(C)C3=C(CC[C@@]21C)[C@@]1(C)CCC(OC(=O)CCC(=O)O)C(C)(C)[C@@H]1CC3 (some centres not stated)
Potency: inactive

Compound: Cc1cc(C)c(O)c(C(=O)CC2CC(=O)NC(=O)C2)c1
Potency: 3.72 µM (active)

Compound: CCCCCC(=O)N[C@@H](CC(C)C)C(=O)N[C@H](C=O)CCC(=O)O (Hexanoyl-Leu-Glu-aldehyde)
Potency: inactive

Compound: COc1cc(/C=C/C(=O)OC[C@@H](Cc2ccc(O)c(OC)c2)[C@@H](COC(=O)/C=C/c2ccc(O)c(OC)c2)Cc2ccc(O)c(OC)c2)ccc1O
Potency: 11.8 µM (active)

Compound: COc1ccc([C@@H]2c3cc4c(cc3C(=O)[C@H](C)C2C)OCO4)cc1OC (some centres not stated)
Potency: 18.7 µM (active)

Compound: C/C(=C\[C@H](C)C(=O)C[C@H](O)CC1CC(=O)NC(=O)C1)[C@@H]1OC(=O)CCCC/C=C/C[C@@H](O)[C@@H]1C
Potency: 7.43 µM (active)

Compound: C=CC(CCCCC)C1C(=O)NC(=O)C1C(=O)C1C2C(C)CC(C(=O)O)CC2CC1(O)C(=O)/C=C/C (configuration not stated)
Potency: inactive

Compound: COC12OC1(C13OC1(OC)C(=O)c1cc4cc(C)oc(=O)c4c(O)c1C3O)C(O)c1c(cc3cc(C)oc(=O)c3c1O)C2=O (configuration not stated)
Potency: inactive

Compound: C=C1C[C@H]2O[C@@H]3[C@@H]4[C@H](CC[C@@](C)(O)[C@@H]42)[C@H](C)COC3(C)[C@@H](OC(=O)CCCCCCC)C[C@H]1O (some centres not stated)
Potency: 23.5 µM (active)

Compound: C=C1C[C@]23C=CC(=O)[C@@](C)(CCCC(C)C(=O)N[C@@H](CO)C(=O)O)[C@@H]2C[C@@H]1CC3 (some centres not stated)
Potency: inactive

Compound: C[C@]12CC[C@]3(C1)[C@H](CC2=O)C[C@@H](OC(=O)c1ccccc1)[C@H]1[C@](C)(C(=O)O)CCC[C@@]13C
Potency: 13.2 µM (active)

Compound: CC[C@@H](c1cc(OC)c(OC)cc1OC)[C@H](C)[C@@H](/C(C)=C/c1cc(OC)c(OC)cc1OC)c1cc(OC)c(OC)cc1OC
Potency: 16.6 µM (active)

Compound: CC[C@@H]1[C@H](C)[C@H](c2cc(OC)c(OC)cc2OC)[C@@H](C)[C@H](c2cc(OC)c(OC)cc2OC)[C@]12C=C(OC)C(=O)C=C2OC
Potency: 26.4 µM (active)

Compound: C=C[C@@]1(C)CC[C@@H]([C@H](C)C(C)=O)O1
Potency: inactive

Compound: O[C@H]1C=C2[C@H]3CN(Cc4cc5c(cc43)OCO5)[C@H]2C[C@@H]1O
Potency: 5.26 µM (active)

Compound: [C-]#[N+][C@@]12C(=O)[C@@H]3[C@@H](O[C@@]4(C(=O)N(C)c5cccc1c54)C3(C)C)C(=O)[C@@]2(C)C=C
Potency: inactive

Compound: CC(=O)c1c(C)cc2c(c1O)C(=O)c1c(O)cc(O)cc1C2=O
Potency: inactive

Compound: CCC(C)=C1OC(=O)[C@H](C)[C@H](O)[C@H](Cc2cccnc2)NC(=O)C(NC(=O)c2ncccc2O)C(C)OC1=O (some centres not stated)
Potency: inactive

Compound: CC[C@@H]1C[C@@]2(CC)OC(=O)[C@@]3(CC)[C@H](CC)[C@@H]1[C@@H]23
Potency: inactive

Compound: C[n+]1cc2cc(C(N)=O)[nH]c3c(=N)c(Cl)c(N)c1c23
Potency: inactive

Compound: C[C@@]12C[C@@H](C[C@@H]3C(=O)O[C@@H](c4ccoc4)[C@H](OC(=O)c4ccccc4)[C@@H]31)OC2=O
Potency: inactive

Compound: COc1cc([C@@H]2c3cc4c(cc3C[C@@]3(O[C@@H]5O[C@H](CO)[C@@H](O)[C@H](O)[C@H]5O)COC(=O)[C@H]23)OCO4)cc(OC)c1OC
Potency: 0.0469 µM (active)

Compound: CC(C)=CCCC(C)(O)[C@H]1CC=C(C)C(O)C1 (some centres not stated)
Potency: inactive

Compound: C[C@@]12CCC[C@@](C)(C(=O)O)[C@H]1CC[C@@]13C[C@@H](CC[C@H]12)[C@](C)(O)C3
Potency: inactive

Compound: C=C[C@]1(C)CC[C@@H]([C@H](C)C(=O)CC=C(C)C)O1
Potency: inactive

Compound: O=C1CC(c2ccc(O)cc2)Oc2cc(O)cc(O)c21 (configuration not stated)
Potency: inactive

Compound: CN1C(=O)C(=O)N2C(=C[C@]3(c4c[nH]c5ccccc45)c4ccccc4N[C@H]23)C1=O
Potency: inactive

Compound: C/C=C(/C)c1c(Cl)c(O)c(C)c2c1Oc1c(Cl)c(O)c(Cl)c(C)c1C(=O)O2
Potency: inactive

Compound: COc1cc2ccc(=O)oc2c(O)c1O[C@@H]1O[C@H](CO)[C@@H](O)[C@H](O)[C@H]1O
Potency: inactive

Compound: CN1CC[C@]2(c3cccc4c3N[C@H]3N(C)CC[C@@]43[C@]34CCN(C)[C@H]3Nc3ccccc34)c3ccccc3N[C@H]12
Potency: 7.43 µM (active)

Compound: O=c1cc(-c2ccc(O)cc2)oc2cc(O)c([C@@H]3OC(CO)[C@H](O)[C@@H](O)[C@H]3O)c(O)c12 (some centres not stated)
Potency: inactive

====

Assay: qHTS drug screen for cell cycle checkpoint inhibitors in PARPi-resistant BRCA-mutant ovarian cancer cell lines. (AID 1963452)
Conditions: PEO1/OlaR viability, CellTiter-Glo luminescence, 96 h; hits give low values
Listed here: items and their measured Z-AUC.

Molecule: NC1=N[C@@]2(c3cc(NC(=O)c4ccc(F)cn4)ccc3F)COC[C@H]2CS1
Z-AUC: 1.41
//
Molecule: CC(C)(c1ccc(OCC(O)CO)cc1)c1ccc(OCC(O)CCl)cc1 (stereo not drawn)
Z-AUC: 1.33
//
Molecule: CC1(C)C(N(O)C(=O)Nc2ccc(Cl)cc2)N(c2ccc(Cl)cc2)C(=O)N1CC(=O)N/N=C/C=C/c1ccc([N+](=O)[O-])o1 (stereo not drawn)
Z-AUC: 1.66
//
Molecule: CC(C)(O)[C@H]1CC[C@@](C)([C@H]2[C@@H](O)C[C@@]3(C)[C@@H]4C[C@H](O[C@@H]5O[C@H](CO)[C@@H](O)[C@H](O)[C@H]5O)[C@H]5C(C)(C)[C@@H](O[C@@H]6OC[C@@H](O)[C@H](O)[C@H]6O)CC[C@@]56C[C@@]46CC[C@]23C)O1
Z-AUC: -0.0384
//
Molecule: Nc1nc(-c2nn(Cc3ccccc3F)c3ncccc23)ncc1C1CC1
Z-AUC: 1.67
//
Molecule: CC(=O)N1CCC(Nc2cc(C(=O)NC[C@H](O)CN3CCc4ccccc4C3)ncn2)CC1
Z-AUC: 0.665
//
Molecule: Cc1onc(-c2ccc(F)cc2)c1COc1ccc(C(=O)N2CCS(=O)(=O)CC2)cn1
Z-AUC: 0.971
//
Molecule: NS(=O)(=O)Oc1ccc2c3c(c(=O)oc2c1)CCCCC3
Z-AUC: 0.451
//
Molecule: CCNC(=O)Nc1ccc(Oc2ncnc(N)c2/C=N/OC)cc1Cl
Z-AUC: 1.52
//
Molecule: C[C@@]1(c2ncncc2F)NC(=O)c2cc(-c3cn[nH]c3)ccc21
Z-AUC: -0.499
//
Molecule: CC1(C)S[C@H]2[C@H](NC(=O)[C@@H](N)c3ccc(O)cc3)C(=O)N2[C@H]1C(=O)O
Z-AUC: -0.122
//
Molecule: CCCN(CCC)C(=O)C1=Cc2ccc(-c3ccc(C(=O)N4CCCC4)cc3)cc2N=C(N)C1
Z-AUC: 0.263
//
Molecule: CCC(=O)O[C@]1(C(=O)CO)CC[C@H]2[C@@H]3CCC4=CC(=O)CC[C@]4(C)[C@H]3CC[C@@]21C
Z-AUC: 1.13
//
Molecule: CC#Cc1cncc(-c2ccc3c(c2)[C@@]2(N=C(C)C(N)=N2)C2(CCC(OC)CC2)C3)c1 (stereo partly drawn)
Z-AUC: 1.27
//
Molecule: CO[C@@H]1[C@@H](O)[C@H](O)[C@@H](n2c3c(Cl)cccc3c3c4c(c5c6cccc(Cl)c6[nH]c5c32)C(=O)NC4=O)O[C@H]1CO
Z-AUC: -0.593
//
Molecule: O=C1NC(=O)/C(=C\c2ccc(-c3ccc(F)cc3)o2)S1
Z-AUC: 0.0775
//
Molecule: OC1CCC([C@H](O)C[C@H]2c3c(F)cccc3-c3cncn32)CC1 (stereo partly drawn)
Z-AUC: -0.0426
//
Molecule: CO[C@H]1/C=C/O[C@@]2(C)Oc3c(C)c(O)c4c(O)c(c5c(nc6cc(C)ccn65)c4c3C2=O)NC(=O)/C(C)=C\C=C\[C@H](C)[C@H](O)[C@@H](C)[C@@H](O)[C@@H](C)[C@H](OC(C)=O)[C@@H]1C
Z-AUC: -0.712
